procedure_details: yeast display, Sf9 membrane polyspecificity reagent, FACS + sequencing; frameworks hold sequencing errors
quantity_measured: polyreactivity (PSR sort gate)

QVQLVESVVGLVQAGGSLRLSSAASGSIFPYYVMGWYRQAPGKERELVAAISSRGTSTYYADSVKGRFTLSRDNAKNSVYLQMNSLKPEDTAVYYCAAAYVKFYGYSAEYDYCGQGTQVTVSS | low polyreactivity
QDQLVESGGGLVQAGGSLRLSCAASGSTLNGNAMGWYRQAPGKERELVAAITTSGGSTYYADSVKGRFTISRDNAKNTVYLQMNSLKPEDTAVYYCNKLIGRRYGWANGYDYWGQGTQVTVSS | low polyreactivity
QVQLVESGGGLVQAGGSLRLSCAASGRTFAINTMGWYRPAPGKEREFVASITRRGGSTYYADSVKWRFTISRDNAKNTVYLQMNSLKREDNAVYYCNAELRWRLPARAAYYYWGQGTQVTFSS | high polyreactivity
QVQLVESGGGLVQAGGSLRLSCAASGRIFSYYAMGWYRQAPGKERELVATISGSGGSTYYADSVKGRFTISRDNAKNTVYLQMNSLKPEDTAVYYCAATGFIFRGRVRAIPRRYNYWGQGTQVTVSS | high polyreactivity

Let us examine a further case.
Asked: Bench note: what polyreactivity (PSR sort gate) did QVQLVESGGGLVQAGGSLRLSLLPPDSPSTTMLWDGIDRRLGKKGSWLPVFLPSGGTTYADSVKGRFTISRDNAKNTVYLQMNSLKPEDTAVYYCAASYYRTRWSWMYYWGQGTQVTLSS show?
Given back: low polyreactivity
